Measured pEC50, listed per entry for reference.
- Test system: PKC mediated IL-2 production
- experimentalProtocol: IL-2 ELISA, human primary T cell, anti CD3+CD28+ (whole cell functional assay)
- Type: cell-based
- conditionContext: IL-2 production, human primary T cells stimulated with αCD3 and αCD28, 24 hours, IL-2 by ELISA; read-out: EC50
pEC50: −log10 of the molar value.

For orientation, consider the following solved cases.
molecule="Cn1nnn(-c2cc(Nc3ncc(F)c(N[C@@H]4CCN5C(CCC5(C)C)C4)n3)c(F)cc2C2CC2)c1=O (mixture of isomers)" targetdesc="PKC mediated IL-2 production" observed="> 5.00"
molecule="CC(C)N1CCC(Oc2ccc(Nc3ncc(F)c(NC4CC5CCCN5C(C)(C)C4)n3)cc2OC(F)F)CC1 (stereo not drawn) [Compound 10]" targetdesc="PKC mediated IL-2 production" observed="> 6.30"
molecule="Cn1nnn(-c2cc(Nc3ncc(F)c(N[C@H]4CCN5[C@@H](CCC5(C)C)C4)n3)c(F)cc2C2CC2)c1=O (single isomer, unassigned)" targetdesc="PKC mediated IL-2 production" observed="> 5.00"
molecule="CC1C(Nc2nc(Nc3cc(OC(F)F)c(C4CC4)cc3F)ncc2F)CC(C)(C)N2CCCC12 (stereo not drawn)" targetdesc="PKC mediated IL-2 production" observed="> 6.30"
molecule="CC1(C)CC(Nc2nc(Nc3ccc(O[C@@H]4CCOC4)c(C#N)c3)ncc2F)CC2CCCN21 (single isomer, unassigned) [Compound 58]" targetdesc="PKC mediated IL-2 production" observed="> 5.00"

Param item = CC1(C)Oc2ccc(Nc3ncc(F)c(NC4CC5CCCN5C(C)(C)C4)n3)cc2-n2nnnc21 (stereo not drawn) [Compound 3] ; retrieve measured pEC50.
> 6.00

Param item = Cn1nnn(-c2cc(Nc3ncc(F)c(NC4CC5CCCN5C(C)(C)C4)n3)ccc2OC2COC2)c1=O (racemic) [Compound 38] ; retrieve measured pEC50.
> 6.30

Param item = Cn1nnn(-c2cc(Nc3ncc(C#N)c(NC4CC5CCCN5C(C)(C)C4)n3)c(F)cc2C2CC2)c1=O (stereo not drawn) ; retrieve measured pEC50.
> 7.00

Param item = Cc1ncc(Nc2ncc(F)c(NC3CC4CCCN4C(C)(C)C3)n2)cc1-n1nnnc1C (stereo not drawn) ; retrieve measured pEC50.
> 6.30

Param item = Cn1nnn(-c2cc(Nc3ncc(F)c(NC4CC5CCCN5C(C)(C)C4)n3)ccc2OC2COC2)c1=O (single isomer, unassigned) [Compound 39] ; retrieve measured pEC50.
> 6.30

Param item = COc1cc(Nc2ncc(F)c(NC3CC4CCCN4C(C)(C)C3)n2)cc(-n2nnnc2C)c1 (stereo not drawn) [Compound 11] ; retrieve measured pEC50.
> 5.00

Param item = CC1(C)Oc2ccc(Nc3ncc(F)c(NC4CC5CCCN5C(C)(C)C4)n3)cc2-n2nnnc21 (stereo not drawn) [Compound 4] ; retrieve measured pEC50.
> 5.00

Origin of values: patent US10792282B2
